- protocol_summary: Inhibition of recombinant NDM1 (unknown origin) expressed in Escherichia coli (DE3) cells using FC5 as substrate by microplate reader assay
Lab note: compare IC50 with 20 µM, writing fulfilled if less and not fulfilled if equal or more.

query: Item `O=P(O)(O)Cc1cccc(-n2cc(-c3cccc(Br)c3)nn2)c1` : IC50 beneath 20 µM, strictly?
result: not fulfilled

query: Item `Nc1cccc(-n2cc(-c3cccc(B(O)O)c3)nn2)c1` : IC50 beneath 20 µM, strictly?
result: not fulfilled

query: Item N#Cc1ccc(C(c2cccc(-n3cc(-c4cccc(N)c4)nn3)c2)P(=O)(O)O)cc1 (stereo unspecified) : IC50 beneath 20 µM, strictly?
result: fulfilled

query: Item `O=C(NCc1cn(-c2cccc(CP(=O)(O)O)c2)nn1)C(F)(F)F` : IC50 beneath 20 µM, strictly?
result: not fulfilled

query: Item Cc1ccc(C(c2cccc(-n3cc(-c4cccc(N)c4)nn3)c2)P(=O)(O)O)cc1 (stereo unspecified) : IC50 beneath 20 µM, strictly?
result: fulfilled

query: Item `OB(O)c1cccc(-c2cn(-c3cccc(Cl)c3)nn2)c1` : IC50 beneath 20 µM, strictly?
result: not fulfilled

###

- protocol_summary: Inhibition of recombinant his tagged IMP1 (unknown origin) expressed in Escherichia coli (DE3) cells using FC5 as substrate by microplate reader assay
metric_name: pIC50
Scale: negative log10 of molar concentration, which is what pIC50 denotes.

query: Bench note: what pIC50 did `O=C(O)c1cccc(-n2cc(-c3cccc(Cl)c3)nn2)c1C(=O)O` show?
result: 5.55

query: Bench note: what pIC50 did Cc1ccc(-c2ccc(C(c3cccc(-n4cc(-c5cccc(N)c5)nn4)c3)P(=O)(O)O)cc2)cc1 (configuration not stated) show?
result: 6.37

query: Bench note: what pIC50 did Nc1cccc(-c2cn(-c3cccc(C(c4ccc(Cl)cc4)P(=O)(O)O)c3)nn2)c1 (configuration not stated) show?
result: 6.27

query: Bench note: what pIC50 did CCCCc1ccc(C(c2cccc(-n3cc(-c4cccc(N)c4)nn3)c2)P(=O)(O)O)cc1 (configuration not stated) show?
result: 6.53

query: Bench note: what pIC50 did `Nc1ccc(-c2cn(-c3cccc(CP(=O)(O)O)c3)nn2)cc1` show?
result: 5.49

query: Bench note: what pIC50 did `O=C(O)c1cccc(-n2cc(Cc3ccccc3)nn2)c1C(=O)O` show?
result: 5.04

query: Bench note: what pIC50 did `O=P(O)(O)Cc1cccc(-n2cc(-c3cccc(Cl)c3)nn2)c1` show?
result: 5.14

query: Bench note: what pIC50 did `Nc1ccccc1-c1cn(-c2cccc(C(=O)O)c2C(=O)O)nn1` show?
result: 5.19

query: Bench note: what pIC50 did `NCCOc1ccc(-c2cn(-c3cccc(C(=O)O)c3C(=O)O)nn2)cc1` show?
result: 5.74

query: Bench note: what pIC50 did `O=P(O)(O)Cc1cccc(-n2cc(-c3ccccc3)nn2)c1` show?
result: 5.22

query: Bench note: what pIC50 did `NCC(=O)Nc1cccc(-c2cn(-c3cccc(CP(=O)(O)O)c3)nn2)c1` show?
result: 4.62

query: Bench note: what pIC50 did `Cc1cccc(-c2cn(-c3cccc(C(=O)O)c3C(=O)O)nn2)c1` show?
result: 5.74

query: Bench note: what pIC50 did `O=P(O)(O)Cc1cccc(-n2cc(CNc3ccccc3)nn2)c1` show?
result: 6.11

query: Bench note: what pIC50 did `NCCc1ccc(-c2cn(-c3cccc(C(=O)O)c3C(=O)O)nn2)cc1` show?
result: 5.74

###

- protocol_summary: Inhibition of recombinant NDM1 (unknown origin) expressed in Escherichia coli (DE3) cells using FC5 as substrate by microplate reader assay
metric_name: pIC50
Scale: negative log10 of molar concentration, which is what pIC50 denotes.

query: Bench note: what pIC50 did `Cc1ccc(-c2cn(-c3cccc(CP(=O)(O)O)c3)nn2)cc1` show?
result: 4.61

query: Bench note: what pIC50 did Cc1ccc(-c2ccc(C(c3cccc(-n4cc(-c5cccc(N)c5)nn4)c3)P(=O)(O)O)cc2)cc1 (stereo not given) show?
result: 6.23

query: Bench note: what pIC50 did CC(C)(C)c1ccc(C(c2cccc(-n3cc(-c4cccc(N)c4)nn3)c2)P(=O)(O)O)cc1 (stereo not given) show?
result: 6.74

query: Bench note: what pIC50 did `Nc1ccc(-c2cn(-c3cccc(CP(=O)(O)O)c3)nn2)cc1` show?
result: 4.82

###

- protocol_summary: Inhibition of recombinant NDM1 (unknown origin) expressed in Escherichia coli (DE3) cells using FC5 as substrate by microplate reader assay
Lab note: compare IC50 with 10 µM, writing 1 (yes) if less and 0 (no) if equal or more.

query: Item `NCC(=O)Nc1cccc(-c2cn(-c3cccc(CP(=O)(O)O)c3)nn2)c1` : IC50 beneath 10 µM, strictly?
result: 0 (no)

query: Item `CCCCc1cn(-c2cccc(CP(=O)(O)O)c2)nn1` : IC50 beneath 10 µM, strictly?
result: 0 (no)

query: Item `Nc1cccc(-c2cn(-c3cccc(C(=O)O)c3C(=O)O)nn2)c1` : IC50 beneath 10 µM, strictly?
result: 0 (no)

query: Item `NCc1cn(-c2cccc(CP(=O)(O)O)c2)nn1` : IC50 beneath 10 µM, strictly?
result: 0 (no)

query: Item CCCc1ccc(C(c2cccc(-n3cc(-c4cccc(N)c4)nn3)c2)P(=O)(O)O)cc1 (configuration not stated) : IC50 beneath 10 µM, strictly?
result: 1 (yes)

query: Item COc1ccc(C(c2cccc(-n3cc(-c4cccc(N)c4)nn3)c2)P(=O)(O)O)cc1 (configuration not stated) : IC50 beneath 10 µM, strictly?
result: 1 (yes)

query: Item `COc1ccc(-c2cn(-c3cccc(CP(=O)(O)O)c3)nn2)cc1` : IC50 beneath 10 µM, strictly?
result: 1 (yes)

query: Item `O=C(O)c1cccc(-n2cc(-c3ccccc3)nn2)c1O` : IC50 beneath 10 µM, strictly?
result: 0 (no)

query: Item `O=C(O)c1cccc(-n2cc(-c3ccccc3)nn2)c1` : IC50 beneath 10 µM, strictly?
result: 0 (no)

query: Item `NCc1cccc(-c2cn(-c3cccc(C(=O)O)c3C(=O)O)nn2)c1` : IC50 beneath 10 µM, strictly?
result: 0 (no)

query: Item `OB(O)c1cccc(-c2cn(Cc3ccccc3)nn2)c1` : IC50 beneath 10 µM, strictly?
result: 0 (no)

query: Item `O=C(CCn1cc(-c2cccc(B(O)O)c2)nn1)Nc1cccc(Cl)c1` : IC50 beneath 10 µM, strictly?
result: 0 (no)

query: Item `O=P(O)(O)Cc1cccc(-n2cc(-c3cccc(Cl)c3)nn2)c1` : IC50 beneath 10 µM, strictly?
result: 0 (no)

query: Item Nc1cccc(-c2cn(-c3cccc(C(c4ccc(-c5ccc(Br)cc5)cc4)P(=O)(O)O)c3)nn2)c1 (configuration not stated) : IC50 beneath 10 µM, strictly?
result: 1 (yes)

query: Item `NCCc1ccc(-c2cn(-c3cccc(C(=O)O)c3C(=O)O)nn2)cc1` : IC50 beneath 10 µM, strictly?
result: 0 (no)

query: Item `O=P(O)(O)Cc1cccc(-n2cc(-c3ccc(Cl)cc3)nn2)c1` : IC50 beneath 10 µM, strictly?
result: 0 (no)

query: Item `Cc1cccc(-c2cn(-c3cccc(C(=O)O)c3C(=O)O)nn2)c1` : IC50 beneath 10 µM, strictly?
result: 0 (no)

query: Item `O=P(O)(O)Cc1ccc(-n2cc(-c3cccc(Cl)c3)nn2)cc1` : IC50 beneath 10 µM, strictly?
result: 0 (no)

query: Item CCCCc1ccc(C(c2cccc(-n3cc(-c4cccc(N)c4)nn3)c2)P(=O)(O)O)cc1 (configuration not stated) : IC50 beneath 10 µM, strictly?
result: 1 (yes)

query: Item `O=P(O)(O)Cc1cccc(-n2cc(-c3ccc(Br)cc3)nn2)c1` : IC50 beneath 10 µM, strictly?
result: 0 (no)

query: Item `O=C(O)c1cn(-c2cccc(C(=O)O)c2C(=O)O)nn1` : IC50 beneath 10 µM, strictly?
result: 0 (no)

query: Item `NCc1cn(-c2cccc(C(=O)O)c2C(=O)O)nn1` : IC50 beneath 10 µM, strictly?
result: 0 (no)

###

- Tested on: Escherichia coli
- protocol_summary: Antibacterial activity against Escherichia coli C1541 expressing blaVIM-2 clinical isolates assessed as meropenem MIC incubated for 16 to 18 hrs by broth microdilution method
- Assay type: functional
- test_settings: time 16-18 hrs
metric_name: MIC (µg/mL)
Numeric answer only, unit µg/mL assumed.

query: Bench note: what MIC did N#Cc1ccc(C(c2cccc(-n3cc(-c4cccc(N)c4)nn3)c2)P(=O)(O)O)cc1 (stereo not given) show?
result: 2

query: Bench note: what MIC did Nc1cccc(-c2cn(-c3cccc(C(c4ccc(Br)cc4)P(=O)(O)O)c3)nn2)c1 (stereo not given) show?
result: 1

query: Bench note: what MIC did `O=[N+]([O-])c1ccc(Cn2cc(-c3cccc(B(O)O)c3)nn2)cc1` show?
result: 64

query: Bench note: what MIC did COc1ccc(C(c2cccc(-n3cc(-c4cccc(N)c4)nn3)c2)P(=O)(O)O)cc1 (stereo not given) show?
result: 2

query: Bench note: what MIC did Nc1cccc(-c2cn(-c3cccc(C(c4ccc(Cl)cc4)P(=O)(O)O)c3)nn2)c1 (stereo not given) show?
result: 1

query: Bench note: what MIC did Nc1cccc(-c2cn(-c3cccc(C(c4ccc(-c5ccccc5)cc4)P(=O)(O)O)c3)nn2)c1 (stereo not given) show?
result: 2

query: Bench note: what MIC did `O=P(O)(O)Cc1cccc(-n2cc(-c3ccccc3Br)nn2)c1` show?
result: 4

query: Bench note: what MIC did Nc1cccc(-c2cn(-c3cccc(C(c4cccc5ccccc45)P(=O)(O)O)c3)nn2)c1 (stereo not given) show?
result: 1

query: Bench note: what MIC did `Nc1ccccc1-c1cn(-c2cccc(CP(=O)(O)O)c2)nn1` show?
result: 1

query: Bench note: what MIC did Cc1ccc(C(c2cccc(-n3cc(-c4cccc(N)c4)nn3)c2)P(=O)(O)O)cc1 (stereo not given) show?
result: 1

query: Bench note: what MIC did `Nc1cccc(-c2cn(-c3cccc(CP(=O)(O)O)c3)nn2)c1` show?
result: 4

query: Bench note: what MIC did `NCCOc1ccc(-c2cn(-c3cccc(C(=O)O)c3C(=O)O)nn2)cc1` show?
result: 32

query: Bench note: what MIC did CSc1ccc(C(c2cccc(-n3cc(-c4cccc(N)c4)nn3)c2)P(=O)(O)O)cc1 (stereo not given) show?
result: 1

query: Bench note: what MIC did CC(C)(C)c1ccc(C(c2cccc(-n3cc(-c4cccc(N)c4)nn3)c2)P(=O)(O)O)cc1 (stereo not given) show?
result: 2

query: Bench note: what MIC did Nc1cccc(-c2cn(-c3cccc(C(c4ccc(F)cc4)P(=O)(O)O)c3)nn2)c1 (stereo not given) show?
result: 0.5

query: Bench note: what MIC did CCCCc1ccc(C(c2cccc(-n3cc(-c4cccc(N)c4)nn3)c2)P(=O)(O)O)cc1 (stereo not given) show?
result: 2

query: Bench note: what MIC did `O=P(O)(O)Cc1cccc(-n2cc(-c3ccc(Br)cc3)nn2)c1` show?
result: 4

query: Bench note: what MIC did CCc1ccc(C(c2cccc(-n3cc(-c4cccc(N)c4)nn3)c2)P(=O)(O)O)cc1 (stereo not given) show?
result: 1

query: Bench note: what MIC did Nc1cccc(-c2cn(-c3cccc(C(c4ccc(-c5ccc(Br)cc5)cc4)P(=O)(O)O)c3)nn2)c1 (stereo not given) show?
result: 2

query: Bench note: what MIC did CCCc1ccc(C(c2cccc(-n3cc(-c4cccc(N)c4)nn3)c2)P(=O)(O)O)cc1 (stereo not given) show?
result: 2
